test protocol: Binding affinity to CM5 sensor chip immobilized human ID2 assessed as dissociation constant by SPR analysis
observable: pKd
Units for pKd: none; it is -log10 of a concentration expressed in mol/L.

Exam item: What does the data say about its pKd? Entry: `O=C(C[C@@]1(O)C(=O)N(Cc2cccc(Cl)c2)c2ccccc21)c1ccccn1`
Marked response: 6.89

* * *

Tested on: U-87 MG
test protocol: Cytotoxicity against human U87 cells assessed as reduction in cell viability incubated for 24 hrs by CCK8 assay
Type: functional, cell-based, U-87MG ATCC
observable: pIC50
Interpret pIC50 as the negative base-10 log of the concentration measured in mol/L.

Some entries whose results are on file:
- compound: "Cc1ccc(CN2C(=O)[C@](O)(CC(=O)c3ccc4c(c3)OCO4)c3cc(Br)ccc32)cc1"
  study target: "U-87 MG"
  observable: "pIC50"
  result number: 4.81
- compound: "COc1ccc(NS(=O)(=O)c2ccc(NC(=S)NC(=O)C(C)C)cc2)cc1"
  study target: "U-87 MG"
  observable: "pIC50"
  result number: 4.25
- compound: "NC(=O)C1CCN(C(=O)c2ccc(CSc3nc4cccnc4n3Cc3ccccc3)cc2)CC1"
  study target: "U-87 MG"
  observable: "pIC50"
  result number: 4.22

Exam item: Which pIC50 is reported with U-87 MG for this entry: `O=C(NCCc1ccccc1)c1ccc(N2C[C@@H]3C[C@H](C2)c2cccc(=O)n2C3)c(NS(=O)(=O)c2cccc(Cl)c2)c1` ?
Marked response: 4.25

Exam item: Query `CCN(C(=O)[C@H](Cc1ccccc1)NS(=O)(=O)c1cccc2nsnc12)c1ccccc1` next
Marked response: 4.18

Exam item: Proceed to `COc1ccc(Cn2c(SCC(=O)n3c4c(c5ccccc53)CCCC4)nc3ccccc32)cc1`
Marked response: 4.05

Exam item: How about `O=C(C1=C(O)C(=O)N(CCc2c[nH]c3ccccc23)[C@@H]1c1cccc(O)c1)c1ccc(Cl)cc1` ?
Marked response: 4.27

* * *

System: U-87 MG
test protocol: Cytotoxicity against human U87 cells assessed as reduction in cell viability incubated for 24 hrs by CCK8 assay
Format: functional, cell-based, U-87MG ATCC
observable: IC50 (µM)
// note: answer is a bare numeric in µM

Solved cases (3 shown):
- compound: "Cc1ccc(NC(=O)C[C@H]2SC(NC(c3ccc(F)cc3)c3c(O)[nH]c(=O)[nH]c3=O)=NC2=O)cc1C (some centres undefined)"
  measurement unit: "µM"
  IC50: 46.5
- compound: "Cc1ccc(CNC(=O)Cn2c(CO)cnc2SCC(=O)Nc2ccc3c(c2)OCO3)cc1"
  measurement unit: "µM"
  IC50: 37.8
- compound: "O=C(C[C@@]1(O)C(=O)N(Cc2cccc(Cl)c2)c2ccccc21)c1ccccn1"
  measurement unit: "µM"
  IC50: 27.3

Exam item: Name the recorded IC50 for CC1Oc2ccc(S(=O)(=O)Nc3ccc(CCC(=O)O)cc3)cc2NC1=O (centres undefined) .
Marked response: 47.4

Exam item: Can you check `Cc1ccc([C@H](O)CNC(=O)c2cccc(C)c2C)cc1` next?
Marked response: 67.3

Exam item: Note, next up: `COc1ccc(N2C(=O)C[C@H](C(=O)NC3CCCCC3)[C@H]2c2ccc(F)cc2)cc1`
Marked response: 77.9

* * *

Tested on: U-87 MG
test protocol: Cytotoxicity against human U87 cells assessed as reduction in cell viability incubated for 24 hrs by CCK8 assay
Format: functional, cell-based, U-87MG ATCC
pIC50: −log10 of the molar value.
observable: pIC50

As a guide, the following entries are already answered.
- compound: "COc1ccccc1[C@H](CNC(=O)CCc1c[nH]c2ccccc12)N1CCCC1"
  pIC50: "< 4.00"
- compound: "COc1cccc2c1OC(c1ccc(F)cc1)N1N=C(c3ccccc3)CC21 (stereo not drawn)"
  pIC50: "< 4.00"

Pending compound:
Exam item: Look at this compound and give its reported pIC50. `O=C(Cc1cccc2ccccc12)NNC(=O)Nc1cccc(Cl)c1`
Marked response: < 4.00

Where do the numbers come from? From ChEMBL document CHEMBL5029168.
